Data credit: patent US20240018252A1

Biological target: human CD3 (huCD3ed) (human) (UniProt P07766)
Sequence (P07766 23-126, chain 1 of 2): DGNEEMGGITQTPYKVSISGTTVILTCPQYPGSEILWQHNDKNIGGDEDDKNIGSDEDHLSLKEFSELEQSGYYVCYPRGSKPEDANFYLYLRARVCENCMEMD
Sequence (P04234 22-105, chain 2 of 2, further chain): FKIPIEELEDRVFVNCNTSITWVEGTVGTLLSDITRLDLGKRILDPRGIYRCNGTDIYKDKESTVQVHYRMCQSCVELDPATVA
Experiment: Biacore SPR, bispecific hIgG2dA format, 37 C; CD3 antigen not given
Assign Kd to each entry below.
Write the value in nM as a bare number.

Summary for this binder, h25A8-B12_Ep (bispecific antibody, part only; not given: anti-EpCam arm, constant regions, V domains shown, not shown: another chain or arm of the molecule; a dimerising Fc or GST; small tags and cut ends) VH: EVQLVESGGGLVKPGGSLRLSCAASGFTFSTYAMNWVRQAPGKGLEWVGRIRSKINNYATYYAESVKGRFTISRDDSKNTLYLQMNSLKTEDTAVYYCVRHETLRSGISWFASWGQGTLVTVSS VL: QAVVTQEPSLTVSPGGTVTLTCRASTGAVTTSNYANWVQQKPGQAPRGLIGGTNTRAPGTPARFSGSLLGGKAALTLSGAQPEDEAEYYCVLWYNNHWVFGGGTKLTVL : Kd is 21

Data point: h2B4-hnpsTK_Ep (bispecific antibody, part only; not given: anti-EpCam arm, constant regions, V domains shown, not shown: another chain or arm of the molecule; a dimerising Fc or GST; small tags and cut ends) VH: EVQLVESGGGLVQPGGSLRLSCAASGFTFSDYYMTWVRQAPGKGLEWVAFIRNRARGYTSDHNPSVKGRFTISRDNAKNSLYLQMNSLRAEDTAVYYCARDRPSYYVLDYWGQGTTVTVSS VL: DIVMTQSPDSLAVSLGERATINCKSSQSLFNVRSRKNYLAWYQQKPGQPPKLLISWASTRESGVPDRFSGSGSGTDFTLTISSLQAEDVAVYYCKQSYDLFTFGSGTKLEIK ; Kd = 31.2

// field: Kd; key: h25A8-B5_Ep (bispecific antibody, part only; not given: anti-EpCam arm, constant regions, V domains shown, not shown: another chain or arm of the molecule; a dimerising Fc or GST; small tags and cut ends) VH: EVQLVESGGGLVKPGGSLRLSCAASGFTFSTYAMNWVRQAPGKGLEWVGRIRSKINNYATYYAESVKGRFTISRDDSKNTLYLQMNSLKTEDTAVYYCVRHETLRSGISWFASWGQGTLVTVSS VL: QAVVTQEPSLTVSPGGTVTLTCRSSTGAVTTSNYANWVQQKPGQAPRGLIGGTNTRAPGTPARFSGSLLGGKAALTLSGAQPEDEAEYYCVLWYNNYWVFGGGTKLTVL ; value = 45
